# System: IGROV-1
# Measurement Notes: NCI tumour cell line growth inhibition, 48 h
Activity calls are given as the source filed them. Rule as the data show it: active = GI50 up to about 1.1 µM and inactive = higher.
Metric Name: GI50

A selection of reference data follows.
O=S(=O)(O)c1cc(O)c(/N=N\C2S(=O)(=O)OCCOS2(=O)=O)c2ccccc12
37.9 µM (inactive)
CCOC(=O)c1cc(C2CCN(c3ccccc3)C2=O)c(C(=O)/C=C(/C)N)[nH]1 (centres undefined)
33.7 µM (inactive)
C=CCNC1=C2C[C@@H](C)C[C@@H](OC)[C@H](OC(=O)CCN)[C@H](C)/C=C(\C)[C@@H](OC(N)=O)[C@H](OC)/C=C\C=C(/C)C(=O)NC(=CC1=O)C2=O
4.74 µM (inactive)

In the following, a different molecule is considered.
Give a short answer stating reported GI50 for CC(=O)CCn1ncc(Cl)c(Cl)c1=O .
18.7 µM (inactive)

###

# Tested on: HCT-116
# Measurement Notes: NCI tumour cell line growth inhibition, 48 h
Activity calls are given as the source filed them. Cut-off read from the data, not from the text of the source: active = GI50 up to about 1.1 µM and inactive = higher.
Metric Name: GI50

OC[C@@H](O)[C@H](O)[C@@H](O)/C=N/Nc1ccc(Cl)nn1
> 100 µM (inactive)

Please turn your attention to the following entry.
Please supply the value of reported GI50 for the item CC(C)NC(=O)OCc1nnn2c1CCC2
> 100 µM (inactive)

###

# Tested on: SNB-75
# Measurement Notes: NCI tumour cell line growth inhibition, 48 h
The source made the active and inactive calls. Rule as the data show it: active = GI50 up to about 1.1 µM and inactive = higher.
Metric Name: GI50

Known GI50 results, listed for orientation:
O=C(NS(=O)(=O)c1ccccc1)C(Cc1ccccc1)C(Cc1ccccc1)C(=O)NS(=O)(=O)c1ccccc1 (stereo unspecified)
> 100 µM (inactive)
COC(=O)c1ccc(/C=C2\Oc3cc(O)ccc3C2=O)cc1
39.4 µM (inactive)
CC1(C)CNC(=O)C2(CCCO2)CNC(C)(C)CNC(=O)C2(CCCO2)CN1 (stereo unspecified)
> 10 µM (inactive)

Provide GI50 value for the following molecule: O=C(O)CC12CC3CC(CC(O)(C3)C1)C2
> 100 µM (inactive)

Answer with reported GI50 of CC1=CC(O)CC(C)(C)C1/C=C/C(C)=C/C=C/C(C)=C/C=C/C=C(C)/C=C/C=C(C)/C=C/C1=C(C)CC(O)CC1(C)C (stereo unspecified)
26.5 µM (inactive)

Provide one value: measured GI50 of CC(C(=O)n1ccnc1)N1c2ccccc2Sc2ccccc21 (stereo unspecified)
40.6 µM (inactive)

Report GI50 for C[N+](C)(C)/C=N\c1cccc2c1CCCC2
56.5 µM (inactive)

Supply recorded GI50 for COc1ccc(C(=O)/C=C/c2ccc(OCCCOc3ccc(/C=C/C(=O)c4ccc(OC)cc4)cc3)cc2)cc1 here.
45.4 µM (inactive)

Name the recorded GI50 of the molecule listed here: CCC1C(=O)OCc2c1cc1n(c2=O)CCC12OCCO2 (stereo unspecified)
> 100 µM (inactive)

Supply recorded GI50 for Clc1sc(Cl)c2c1[C@H](Br)C[C@@H]2Cl here.
> 100 µM (inactive)

Please give the documented GI50 of NNc1ncnc2cccc(Cl)c12
> 100 µM (inactive)

###

# Tested on: K562
# Measurement Notes: NCI tumour cell line growth inhibition, 48 h
Active and inactive are the calls of the source. No stated cut-off is given here; in the data, active = GI50 up to about 1.1 µM and inactive = higher.
Metric Name: GI50

CC(C)C(NCc1c2ccccc2[n+]([O-])c2ccccc12)C(=O)O (centres undefined)
32.1 µM (inactive)

For the compound COc1cc(C2(C)SCCCS2)c(I)c(OC)c1OC , report GI50.
87.5 µM (inactive)

Identify measured GI50 corresponding to CCOC(=O)c1csc(NC(=O)CN2CCCC2)n1
> 100 µM (inactive)
